experiment: Inhibition of Mycobacterium tuberculosis DNA GyrA/B heterotetramer assessed as inhibition of pBR322 supercoiling after 30 mins by gel electrophoresis
Form field: IC50 (one value per entry).
recorded metric: IC50

smiles_str=NC(=O)c1cc(-c2ccccc2)sc1NC(=O)C1CCCCC1 recorded_metric=IC50 value="9.83 µM"
smiles_str=CC(C)NC(=O)Nc1sc(-c2ccccc2)cc1C(N)=O recorded_metric=IC50 value="6.17 µM"
smiles_str=NC(=O)c1cc(-c2ccccc2)sc1NC(=O)c1ccc(Cl)cc1 recorded_metric=IC50 value="5.82 µM"
smiles_str=NC(=O)c1cc(-c2ccccc2)sc1NC(=O)Nc1ccc(F)cc1 recorded_metric=IC50 value="9.88 µM"

Ref: ChEMBL document CHEMBL3400074
